Molecular target: T1, hCMV gH + gL + UL128 + UL130 + UL131A (5-member complex; HEK293T co-transfectant) (hCMV, UniProt P12824 24-743; P16832 31-278; P16837 1-171; P16772 1-214)
T1 construct: whole, on cells; in the functional rows it stands for the complex on virions or transduced cells of the strain or isolate named in the readout; also called gH/gL/UL128-131A complex; pentameric complex
Assay: cell competition; competitor 8J16-biotin
Below is a list of entries, each paired with its recorded Inhibition of binding (%) value.
Record the result as a number with its unit.

[
  {
    "BINDER": "2C12 (antibody, V domains shown, human IgG; also called 2C12-biotin) VH: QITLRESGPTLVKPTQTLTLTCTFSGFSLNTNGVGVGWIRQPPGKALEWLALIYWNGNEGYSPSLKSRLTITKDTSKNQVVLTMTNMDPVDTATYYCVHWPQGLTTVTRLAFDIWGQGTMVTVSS VL: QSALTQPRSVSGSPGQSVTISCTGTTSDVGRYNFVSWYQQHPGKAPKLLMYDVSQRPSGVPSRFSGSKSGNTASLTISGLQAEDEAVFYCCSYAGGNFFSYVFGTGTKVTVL",
    "Inhibition of binding (%)": "100%"
  },
  {
    "BINDER": "7I13 (antibody, V domains shown, human IgG; also called 7113) VH: QVQLVESGGGVVQPGRSLRLSCAASGFTFSNYGMHWVRQGPGKGLEWVAVISYDASSKYYTDSVQGRFTISRDNSKNTLFLQMNSLRGEDTAVYYCAKALRYLDWFLSDPFDYWGQGTLVTVSS VL: EIVLTQSPGTLSLSPGERATLSCRASQSVSSDFLAWYQQKPGQAPRLLIYGASSRATGIPDRFSGSGSGTDFTLTISRLEPEDFAVYYCQQYAASPPFGQGTRLEIK",
    "Inhibition of binding (%)": "0%"
  }
]

Turning now to a further record.
[in] What value of Inhibition of binding (%) has been reported for the following binder? 9I6 (antibody, V domains shown, human IgG; also called 9I6-biotin; 916) VH: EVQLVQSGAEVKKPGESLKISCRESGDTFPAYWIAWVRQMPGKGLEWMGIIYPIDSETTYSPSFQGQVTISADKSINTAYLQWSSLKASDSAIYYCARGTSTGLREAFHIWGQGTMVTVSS VL: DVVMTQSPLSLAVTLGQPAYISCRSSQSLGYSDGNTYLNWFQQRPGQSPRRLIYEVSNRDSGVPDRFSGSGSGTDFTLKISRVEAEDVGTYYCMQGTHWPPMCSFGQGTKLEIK
[out] 100%

FYI, the data here is from patent US20170296650A1.
